Just for reference, the supplement of paper PMC7877785 is where these values come from.

# self-splicing fitness (ln) listing for each entry below
experiment: self-splicing fitness, log relative to wild type (ln ratio); higher = more splicing; Tetrahymena group I intron in knt gene, E. coli kanamycin selection, DiMSum; sequences stand for … in CUCUCU…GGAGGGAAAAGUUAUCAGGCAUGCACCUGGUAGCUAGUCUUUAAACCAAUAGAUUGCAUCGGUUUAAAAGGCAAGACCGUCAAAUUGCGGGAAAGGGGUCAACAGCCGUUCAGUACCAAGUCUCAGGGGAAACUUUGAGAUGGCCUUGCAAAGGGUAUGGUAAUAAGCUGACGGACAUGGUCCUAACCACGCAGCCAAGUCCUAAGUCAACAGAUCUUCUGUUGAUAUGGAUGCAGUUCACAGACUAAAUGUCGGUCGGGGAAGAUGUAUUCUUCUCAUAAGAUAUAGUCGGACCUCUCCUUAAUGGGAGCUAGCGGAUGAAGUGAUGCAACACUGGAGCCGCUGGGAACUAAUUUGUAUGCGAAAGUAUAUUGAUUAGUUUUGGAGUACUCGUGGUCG; conditions: 37 °C;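 further: selection with 25 µg/mL kanamycin versus none on LB agar overnight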
Number only, please.

// worked examples, self-splicing fitness (ln) included
[[record]]
seq = "ACGGAGCAAUAUUACGGAAC"
reported_result = -3.62

[[record]]
seq = "GUGAAGCAAUAUUACGAGUA"
reported_result = -1.47


Notebook: UCUGAGCAAUAUUACGGUUA , self-splicing fitness (ln) read as -2.05

Value of measured self-splicing fitness (ln) for the entry CAAAAGCAAUAUUACGGCGG : -0.395

The measured self-splicing fitness (ln) associated with CAAAAGCAAUAUUACGCUAA reads -2.1

---

experiment: self-splicing fitness, log relative to wild type (ln ratio); higher = more splicing; Tetrahymena group I intron in knt gene, E. coli kanamycin selection, DiMSum; sequences stand for … in CUCUCU…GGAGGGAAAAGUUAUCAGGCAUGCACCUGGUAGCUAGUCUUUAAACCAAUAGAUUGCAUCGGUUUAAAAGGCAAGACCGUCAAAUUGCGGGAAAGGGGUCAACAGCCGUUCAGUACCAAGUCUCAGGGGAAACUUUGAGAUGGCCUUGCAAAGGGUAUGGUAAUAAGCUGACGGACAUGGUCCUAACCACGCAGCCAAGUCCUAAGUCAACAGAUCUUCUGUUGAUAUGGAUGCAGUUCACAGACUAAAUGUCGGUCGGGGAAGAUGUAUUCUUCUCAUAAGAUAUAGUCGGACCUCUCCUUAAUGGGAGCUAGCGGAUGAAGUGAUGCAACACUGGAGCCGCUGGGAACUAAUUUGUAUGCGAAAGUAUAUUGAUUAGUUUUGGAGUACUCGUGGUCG; conditions: 37 °C
Listing: self-splicing fitness (ln) of selected sequences
I only need the number, thanks.

Before answering, review these 3 worked examples.
[[record]]
seq = "GGCUAGCAAUAUUACGACGU"
reported_result = 1.15

[[record]]
seq = "AGUUAGCAAUAUUACGGUAA"
reported_result = -1.53

[[record]]
seq = "GAAGAGCAAUAUUACGGUAC"
reported_result = -1.69


Form: sequence = AGCCAGCAAUAUUACGCGCG ; self-splicing fitness (ln) = -0.281

For this sequence ( UUAUAGCAAUAUUACGAGGG ), measured self-splicing fitness (ln) is -2.3

---

Measured self-splicing fitness (ln) of individual entries
assay: self-splicing fitness, log relative to wild type (ln ratio); higher = more splicing; Tetrahymena group I intron in knt gene, E. coli kanamycin selection, DiMSum; sequences stand for … in CUCUCU…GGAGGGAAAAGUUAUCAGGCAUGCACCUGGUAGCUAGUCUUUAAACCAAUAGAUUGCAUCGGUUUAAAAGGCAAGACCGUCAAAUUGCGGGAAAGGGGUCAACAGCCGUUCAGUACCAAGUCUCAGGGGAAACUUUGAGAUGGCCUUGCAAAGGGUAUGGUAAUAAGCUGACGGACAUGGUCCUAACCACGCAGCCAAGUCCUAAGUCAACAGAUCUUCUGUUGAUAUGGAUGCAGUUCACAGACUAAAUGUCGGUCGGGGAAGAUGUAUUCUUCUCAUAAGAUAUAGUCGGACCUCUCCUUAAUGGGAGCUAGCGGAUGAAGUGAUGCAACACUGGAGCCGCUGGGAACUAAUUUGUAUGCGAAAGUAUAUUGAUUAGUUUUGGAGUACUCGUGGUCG; conditions: 37 °C
Give the figure only, with no unit attached.

Answered cases to consult:
[[record]]
seq = "GCAAAGCAAUAUUACGUAGC"
reported_result = -1.71

[[record]]
seq = "GGGUAGCAAUAUUACGUUGG"
reported_result = -2.14

[[record]]
seq = "GAUCAGCAAUAUUACGAUAC"
reported_result = -0.733

[[record]]
seq = "CUUAAGCAAUAUUACGCGAG"
reported_result = -3.57

[[record]]
seq = "UAUUAGCAAUAUUACGAGUU"
reported_result = -0.971


Entry AGGUAGCAAUAUUACGAGAG — recorded self-splicing fitness (ln) = -2.71
